- test_protocol: in vitro
- reported_conditions: human, hek293t cells
property_label: viability at 48 h, 25 µM

[[record]]
molecule = "O=C(CCl)Nc1nc(-c2cccs2)cs1 [5-D18]"
observed_value = "0.312%"


Reported viability at 48 h, 25 µM for CC(Cl)C(=O)N1CCN(Cc2nnnn2-c2ccccc2)CC1 (stereo not shown) [7-N05] was 97.8%

Reported viability at 48 h, 25 µM for Cc1ccc(C)n1C1CCC(NC(=O)CCl)CC1 (stereo not shown) [7-F18] was 106%

Reported viability at 48 h, 25 µM for C=CC(=O)NC1(c2ccccc2)CCCC1 [1-O15, N-(1-phenylcyclopentyl)prop-2-enamide] was 95.6%

Reported viability at 48 h, 25 µM for C=CC(=O)NC1Cc2ccccc2C1=O (stereo not shown) [1-H21] was 156%

Reported viability at 48 h, 25 µM for COc1ccc(N2C(=O)C=CC2=O)c(OC)c1 [10-J15] was 109%

Reported viability at 48 h, 25 µM for C=CC(=O)Nc1cc(OC)ccc1C(=O)N(C)OC [1-J14] was 74.9%

Reported viability at 48 h, 25 µM for CC(O)CN(Cc1ccc(Cl)c(F)c1)C(=O)CCl (stereo not shown) [5-K12] was 0.478%

Reported viability at 48 h, 25 µM for C=CC(=O)N1CCC(C(=O)NCc2cccc(Cl)c2F)CC1 [3-N12] was 87.6%

Reported viability at 48 h, 25 µM for CC(C)c1ccc(-c2cc(NC(=O)CCl)n(-c3ccccc3)n2)cc1 [4-C16] was -0.013%

Reported viability at 48 h, 25 µM for Cc1cc(C=C(C#N)C(N)=O)c(C)n1-c1cccc2ccccc12 [9-I12] was 86.9%

Reported viability at 48 h, 25 µM for CCOc1ccccc1NC(=O)C(C#N)=Cc1ccc2c(c1)OCO2 [9-P05] was 136%

Reported viability at 48 h, 25 µM for C=CC(=O)NCC1CNC(=O)c2ccccc21 (stereo not shown) [2-F17] was 54.8%

Reported viability at 48 h, 25 µM for CC(Cl)C(=O)NCC1CN(c2ccc(Cl)cc2)CCO1 (stereo not shown) [6-F07] was 101%

Reported viability at 48 h, 25 µM for O=C(CCl)NC(c1ccc(F)cc1)C1CCCC1 (stereo not shown) [6-K08] was 1.04%

Reported viability at 48 h, 25 µM for CC(c1ccc(S(N)(=O)=O)cc1)N(C)C(=O)CCl (stereo not shown) [7-H12] was 0.618%

Reported viability at 48 h, 25 µM for O=C(CCl)N(CC1=CCSC1)c1ccccc1 [4-F11] was 0.548%

Reported viability at 48 h, 25 µM for C=CC(=O)NCC1(c2ccccc2)CC1(F)F (stereo not shown) [2-O20] was 113%

Reported viability at 48 h, 25 µM for N#CC(=Cc1ccco1)C(=O)Nc1cccc(Cn2cccn2)c1 [8-I20] was 82.1%

Reported viability at 48 h, 25 µM for C=CC(=O)N1CC(NC(=O)c2ccoc2CC)C(C)(C)C1 (stereo not shown) [1-L22] was 71.3%

Reported viability at 48 h, 25 µM for Cc1nn(C)c(C)c1C=C(C#N)C(=O)Nc1ccc2c(c1)OCCO2 [9-D03] was 112%

Reported viability at 48 h, 25 µM for C=CC(=O)N1CCCC(Cc2noc(C)n2)C1 (stereo not shown) [1-L20] was 72.5%

Where these numbers come from: paper PMC11995724
